test system: Plasmodium falciparum; experiment: Antimalarial activity against chloroquine-sensitive Plasmodium falciparum NF54 infected in RBC after 72 hrs by [3H]hypoxanthine incorporation assay in presence of 0.5 % albumax; assay type: functional, organism-based
The entries below come with measured IC50 values attached.
recorded.metric: IC50 (nM)

| mol | measured.target | readout.unit | limit.operator | value |
| --- | --- | --- | --- | --- |
| C[C@@H](NC[C@@H](O)[C@H](Cc1ccccc1)NC(=O)c1ccc(Nc2ccncc2)cc1)c1ccccc1 | Plasmodium falciparum | nM | = | 20 |
| CC(C)(NC[C@@H](O)[C@H](Cc1ccccc1)NC(=O)Cc1ccccc1)c1ccccc1 | Plasmodium falciparum | nM | > | 500 |
| CCCN(CCC)C(=O)c1cccc(C(=O)N[C@@H](Cc2ccccc2)[C@H](O)CNCc2ccccc2)c1 | Plasmodium falciparum | nM | > | 500 |
| COCCCC(=O)N[C@@H](Cc1ccccc1)[C@H](O)CNC(C)(C)c1ccccc1 | Plasmodium falciparum | nM | > | 500 |
| CN1CCN(c2ccc(C(=O)N[C@@H](Cc3ccccc3)[C@H](O)CNCc3ccc(O)c(CN4CCCC4)c3)cc2)CC1 | Plasmodium falciparum | nM | > | 500 |
| CCN(CC)Cc1ccc(Nc2ccc(C(=O)N[C@@H](Cc3ccccc3)[C@H](O)CN[C@H](C)c3ccccc3)cc2)cc1O | Plasmodium falciparum | nM | < | 7.8 |
| CCCN(CCC)C(=O)c1cccc(C(=O)N[C@@H](Cc2ccccc2)[C@H](O)CN[C@@H](C)C2CCCCC2)c1 | Plasmodium falciparum | nM | = | 324 |
| CC(C)(NC[C@@H](O)[C@H](Cc1ccccc1)NC(=O)c1cccc(C(F)(F)F)c1)c1ccccc1 | Plasmodium falciparum | nM | = | 300 |
| CCCN(CCC)Cc1cc(C(=O)N[C@@H](Cc2ccccc2)[C@H](O)CN[C@H](C)c2ccccc2)ccc1O | Plasmodium falciparum | nM | = | 118 |
| C[C@@H](NC[C@@H](O)[C@H](Cc1ccccc1)NC(=O)c1ccc(NC2CCN(C)CC2)cc1)c1ccccc1 | Plasmodium falciparum | nM | = | 4 |
| CC(=O)N1CCN(c2ccc(C(=O)N[C@@H](Cc3ccccc3)[C@H](O)CNC(C)(C)c3ccccc3)cc2)CC1 | Plasmodium falciparum | nM | = | 162 |

----------
tested on: Plasmodium falciparum; experiment: Antimalarial activity against chloroquine-resistant Plasmodium falciparum K1 infected in RBC by [3H]hypoxanthine incorporation assay in presence of 50 % serum; format: functional, organism-based
Please assign No whenever IC50 is at or above 30 nM, and Yes whenever it is below.

| mol | measured.target | answer.label |
| --- | --- | --- |
| C[C@@H](NC[C@@H](O)[C@H](Cc1ccccc1)NC(=O)c1ccc(Nc2ccc(O)c(CN3CCCC3)c2)cc1)c1ccccc1 | Plasmodium falciparum | Yes |
| C[C@@H](NC[C@@H](O)[C@H](Cc1ccccc1)NC(=O)c1ccc(N2CCN(C)CC2)cc1)c1ccccc1 | Plasmodium falciparum | No |
| CCCN(CCC)Cc1cc(CNC[C@@H](O)[C@H](Cc2ccccc2)NC(=O)c2ccc(Nc3ccnc(C)c3)cc2)ccc1O | Plasmodium falciparum | No |
| CCCN(CCC)Cc1cc(Nc2ccc(C(=O)N[C@@H](Cc3ccccc3)[C@H](O)CN[C@H](C)c3ccccc3)cc2)ccc1O | Plasmodium falciparum | Yes |
| CCN(CC)Cc1cc(Nc2ccc(C(=O)N[C@@H](Cc3ccccc3)[C@H](O)CNC3CCCC3)cc2)ccc1O | Plasmodium falciparum | No |
| Cc1cc(Nc2ccc(C(=O)N[C@@H](Cc3ccccc3)[C@H](O)CN[C@H](C)c3ccccc3)cc2)cc(C)n1 | Plasmodium falciparum | Yes |
| CN1CCN(c2ccc(C(=O)N[C@@H](Cc3ccccc3)[C@H](O)CNCc3ccc(O)c(CN4CCCCC4)c3)cc2)CC1 | Plasmodium falciparum | Yes |
| CCCN(CCC)C(=O)c1cccc(C(=O)N[C@@H](Cc2ccccc2)[C@H](O)CNC2CCCC2)c1 | Plasmodium falciparum | No |
| C[C@@H](NC[C@@H](O)[C@H](Cc1ccccc1)NC(=O)c1ccc(Nc2ccncc2)cc1)c1ccccc1 | Plasmodium falciparum | No |
| C[C@@H](NC[C@@H](O)[C@H](Cc1ccccc1)NC(=O)c1ccc(N(C)c2ccncc2)cc1)c1ccccc1 | Plasmodium falciparum | No |
| CCN(CC)Cc1cc(Nc2cccc(C(=O)N[C@@H](Cc3ccccc3)[C@H](O)CNC3CCCC3)c2)ccc1O | Plasmodium falciparum | No |
